Biological target: T1, CD96 (UniProt P40200 22-585, limits assumed)
T1 construct: whole, on cells
T1 sequence (looked up): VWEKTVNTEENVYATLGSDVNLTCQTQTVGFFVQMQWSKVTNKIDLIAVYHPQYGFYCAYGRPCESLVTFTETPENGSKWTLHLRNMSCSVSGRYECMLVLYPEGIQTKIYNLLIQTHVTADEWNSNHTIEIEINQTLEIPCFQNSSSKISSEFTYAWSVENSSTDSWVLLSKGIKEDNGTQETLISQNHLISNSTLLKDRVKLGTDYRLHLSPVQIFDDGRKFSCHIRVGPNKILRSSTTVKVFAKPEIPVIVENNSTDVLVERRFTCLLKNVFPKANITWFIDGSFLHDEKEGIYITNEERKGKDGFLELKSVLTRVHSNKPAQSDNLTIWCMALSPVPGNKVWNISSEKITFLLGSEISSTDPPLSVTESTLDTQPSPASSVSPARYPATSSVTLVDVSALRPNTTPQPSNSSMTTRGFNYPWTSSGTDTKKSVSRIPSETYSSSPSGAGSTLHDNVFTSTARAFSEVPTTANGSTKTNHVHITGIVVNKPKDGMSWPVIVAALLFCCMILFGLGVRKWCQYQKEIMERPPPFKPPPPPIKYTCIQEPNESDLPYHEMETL
Assay: flow cytometry, Fc fusion at 100 nM, CD96-transfected cells
READOUT NAME: MFI at 100 nM (MFI)

BINDER: variant CD155 IgV-Fc S42A/L104Q/G111R (Fc fusion, not shown: a dimerising Fc or GST) WPPPGTGDVVVQAPTQVPGFLGDSVTLPCYLQVPNMEVTHVAQLTWARHGESGSMAVFHQTQGPSYSESKRLEFVAARLGAELRNASLRMFGLRVEDEGNYTCQFVTFPQRSRSVDIWLRVL
UNIT NAME: MFI
MFI at 100 nM: 1700

BINDER: variant CD155 IgV-Fc S52M/Q62Y (Fc fusion, not shown: a dimerising Fc or GST) WPPPGTGDVVVQAPTQVPGFLGDSVTLPCYLQVPNMEVTHVSQLTWARHGEMGSMAVFHQTYGPSYSESKRLEFVAARLGAELRNASLRMFGLRVEDEGNYTCLFVTFPQGSRSVDIWLRVL
UNIT NAME: MFI
MFI at 100 nM: 1650

BINDER: variant CD155 IgV-Fc S52W (Fc fusion, not shown: a dimerising Fc or GST) WPPPGTGDVVVQAPTQVPGFLGDSVTLPCYLQVPNMEVTHVSQLTWARHGEWGSMAVFHQTQGPSYSESKRLEFVAARLGAELRNASLRMFGLRVEDEGNYTCLFVTFPQGSRSVDIWLRVL
UNIT NAME: MFI
MFI at 100 nM: 1710

BINDER: variant CD155 IgV-Fc S42Q (Fc fusion, not shown: a dimerising Fc or GST) WPPPGTGDVVVQAPTQVPGFLGDSVTLPCYLQVPNMEVTHVQQLTWARHGESGSMAVFHQTQGPSYSESKRLEFVAARLGAELRNASLRMFGLRVEDEGNYTCLFVTFPQGSRSVDIWLRVL
UNIT NAME: MFI
MFI at 100 nM: 2140

BINDER: variant CD155 IgV-Fc S52M/V57L (Fc fusion, not shown: a dimerising Fc or GST) WPPPGTGDVVVQAPTQVPGFLGDSVTLPCYLQVPNMEVTHVSQLTWARHGEMGSMALFHQTQGPSYSESKRLEFVAARLGAELRNASLRMFGLRVEDEGNYTCLFVTFPQGSRSVDIWLRVL
UNIT NAME: MFI
MFI at 100 nM: 1860

BINDER: variant CD155 IgV-Fc Q62F/L104E/G111R (Fc fusion, not shown: a dimerising Fc or GST) WPPPGTGDVVVQAPTQVPGFLGDSVTLPCYLQVPNMEVTHVSQLTWARHGESGSMAVFHQTFGPSYSESKRLEFVAARLGAELRNASLRMFGLRVEDEGNYTCEFVTFPQRSRSVDIWLRVL
UNIT NAME: MFI
MFI at 100 nM: 1520
